System: COLO 205
ASSAY METHOD TEXT: NCI tumour cell line growth inhibition, 48 h
Activity calls are given as the source filed them. Rule as the data show it: active = GI50 up to about 1.1 µM and inactive = higher.
# GI50 per record follows

Consider the worked cases shown below.
Cc1c2c(ccc3ccccc32)c[n+]2ccccc12    13 µM (inactive)
CCOC(=O)/C(C#N)=C/c1coc2cc(C)cc(C)c2c1=O    > 100 µM (inactive)
O=[N+]([O-])c1ccc2c3c1[C@H]1O[C@H]1c1cccc(c1-3)[C@@H]1O[C@H]21    2.05 µM (inactive)
CC(C)CC(NC(=O)C(C)(CI)Cc1ccccc1)C(=O)Nc1ccccc1 (stereo not given)    > 100 µM (inactive)
O=c1[nH]c2ccccc2n1C1CCN(CCCC(c2ccc(F)cc2)c2ccc(F)cc2)CC1 [PIMOZIDE]    1.69 µM (inactive)

-- ask Look up GI50 for this compound: `Cc1ccc2c(c1)C(=O)N1CCC[C@H]1C=N2`
-- reply 17.6 µM (inactive)

-- ask Look up GI50 for this compound: OC(CCN1CCN(CCOC(c2ccccc2)c2ccccc2)CC1)c1ccc(Br)cc1 (stereo not given)
-- reply 1.71 µM (inactive)

-- ask Look up GI50 for this compound: N#CC12C3C4CC5C6C4C1C6C(O)(C53)N2Cc1ccccc1 (stereo not given)
-- reply > 100 µM (inactive)

-- ask Look up GI50 for this compound: `CC/N=C(/C#N)NCC`
-- reply 99.3 µM (inactive)

-- ask Look up GI50 for this compound: `Cc1cc(C)nc(NS(=O)(=O)c2ccc(Nc3c4ccccc4nc4c(C(=O)NNCCO)cccc34)cc2)n1`
-- reply > 100 µM (inactive)

----------
Test system: 786-0
ASSAY METHOD TEXT: NCI tumour cell line growth inhibition, 48 h
Active and inactive are the calls of the source. Cut-off read from the data, not from the text of the source: active = GI50 up to about 1.1 µM and inactive = higher.
Give your call using only these classes: active, inactive

Solved entries (count: 6):
N#CC12C3C4CC5C6C4C1C6C(O)(C53)N2Cc1ccccc1 (centres undefined)    inactive
CC(=O)O[C@H]1C(=O)[C@@]2(C)C(C(OC(=O)c3ccccc3)[C@]3(O)CC(OC(=O)C(O)C(NC(=O)c4ccccc4)c4ccc(F)cc4)C(C)=C1C3(C)C)[C@]1(OC(C)=O)CO[C@@H]1C[C@@H]2O (some centres undefined)    active
N=c1c2ccccc2sc2nc3ccccc3n12    inactive
COC1=Nc2ccccc2S(=O)(=O)C=C1    inactive
C[N+]1(CCNP(=S)(NCC[N+]2(C)Cc3c(ccc4c3OCO4)C3C2c2cc4c(cc2C[C@@H]3O)OCO4)NCC[N+]2(C)Cc3c(ccc4c3OCO4)C3C2c2cc4c(cc2C[C@@H]3O)OCO4)Cc2c(ccc3c2OCO3)C2C1c1cc3c(cc1C[C@H]2O)OCO3 (some centres undefined)    active
CC1CCC2(NC1)OC1CC3C4CC=C5CC(OC6OC(CO)C(OC7OC(C)C(O)C(O)C7O)C(O)C6OC6OC(C)C(O)C(O)C6O)CCC5(C)C4CCC3(C)C1C2C (centres undefined)    inactive

-- ask Outcome? `CC(=O)C1=C(C)NC(=C(C#N)C#N)C(C#N)=C1`
-- reply inactive

-- ask Outcome? CC1CC(C)C(C#N)N(C)c2ccccc21 (centres undefined)
-- reply inactive

-- ask Outcome? CCOC(=O)CCC(NC(=O)Cc1ccc(Oc2nc3ccccc3nc2-c2ccccc2)cc1)C(=O)OCC (centres undefined)
-- reply inactive

----------
System: NCI-H460
ASSAY METHOD TEXT: NCI tumour cell line growth inhibition, 48 h
Activity calls are given as the source filed them. Cut-off read from the data, not from the text of the source: active = GI50 up to about 1.1 µM and inactive = higher.
Give your call using only these classes: 1 (yes) = active, 0 (no) = inactive

Solved entries (count: 5):
C[N+](C)(C)CC1CCCCC1=O (stereo unspecified)    0 (no)
N#Cc1c(N)nc(Nc2cccc3ccccc23)c(C#N)c1C#N    0 (no)
O=C(NCCC1CNc2ccccc21)OCc1ccccc1 (stereo unspecified)    0 (no)
O=C1C=C(O)C(=Cc2c(O)cc(O)cc2O)C(O)=C1    0 (no)
Cc1cccc(C)c1N1C(=O)C(=O)C(c2nc3ccccc3s2)/C(=N\N)C1=O (stereo unspecified)    0 (no)

-- ask Outcome? `Cc1ccc(C2=NO[C@@H]3C(=O)N(c4ccc(Cc5ccc(N6C(=O)[C@H]7C(c8ccc(C)cc8)=NO[C@H]7C6=O)cc5)cc4)C(=O)[C@H]23)cc1`
-- reply 0 (no)

-- ask Outcome? `[O-]c1c2c(nn1-c1ccccc1)c1ccccc1c[n+]2Cc1ccccc1`
-- reply 0 (no)

-- ask Outcome? `NC1CCCCC1.O=C(O)C(CP(=O)(O)O)=C(Cl)Cl`
-- reply 0 (no)

-- ask Outcome? `C/C(=N\NC(=S)NC1CCCC1)c1ccccn1`
-- reply 1 (yes)

-- ask Outcome? `Nc1ccn(CCO)c(=O)n1`
-- reply 0 (no)

-- ask Outcome? CCC(C)(O)c1cn(-c2ccc(S(=O)(=O)O)cc2)nn1 (stereo unspecified)
-- reply 0 (no)

-- ask Outcome? Cc1ccc(N2C(=O)C3c4[nH]c5ccccc5c4C4CCC(C(C)(C)C)CC4C3C2=O)cc1 (stereo unspecified)
-- reply 0 (no)

-- ask Outcome? `O=C(NCP(=O)(Oc1ccccc1)Oc1ccccc1)OCc1ccccc1`
-- reply 0 (no)

-- ask Outcome? `CC(=O)O[C@H]1C(=O)[C@@]2(C)[C@H]([C@H](OC(=O)c3ccoc3)[C@]3(O)C[C@H](OC(=O)[C@H](O)[C@@H](NC(=O)c4ccccc4)c4ccccc4)C(C)=C1C3(C)C)[C@]1(OC(C)=O)CO[C@@H]1C[C@@H]2O`
-- reply 1 (yes)

-- ask Outcome? COc1cc(NC(C)CCCN)c2nccc(C)c2c1 (stereo unspecified)
-- reply 0 (no)

-- ask Outcome? CNC1=Nc2ccccc2C(=O)N2CSCC12 (stereo unspecified)
-- reply 0 (no)

-- ask Outcome? `CC(=O)C1=C(C)NC(=C(C#N)C#N)C(C#N)=C1`
-- reply 0 (no)

-- ask Outcome? `C/C(=N\NC(=S)N1CCCCC1)c1cccc(C)n1`
-- reply 1 (yes)

-- ask Outcome? `CC/N=C(/C#N)NCC`
-- reply 0 (no)

-- ask Outcome? COC(=O)C1=C(O)C(C(=O)OC)[C@]2(O)[C@H](C(=O)OC)[C@H]1C[C@@H](c1ccc([N+](=O)[O-])cc1)[C@H]2C(=O)OC (stereo partly specified)
-- reply 0 (no)

-- ask Outcome? COC(=O)/C(C#N)=C1\CCC(O)N1 (stereo unspecified)
-- reply 0 (no)

----------
System: T47D
ASSAY METHOD TEXT: NCI tumour cell line growth inhibition, 48 h
Activity calls are given as the source filed them. Cut-off read from the data, not from the text of the source: active = GI50 up to about 1.1 µM and inactive = higher.
PROPERTY LABEL: GI50

O=[N+]([O-])c1ccc2c3c1[C@H]1O[C@H]1c1cccc(c1-3)[C@@H]1O[C@H]21    2.08 µM (inactive)
N#CC(C#N)=C/C=C/c1c(Cl)cccc1Cl    2.24 µM (inactive)
CC(C)C(=O)/C=C/c1ccc(Cl)cc1Cl    13 µM (inactive)
COc1ccc2c(c1)[nH]c1c3ccc(OC)cc3oc(=O)c21    > 100 µM (inactive)
CC1=C(C(=O)NNC(=O)Cc2ccccc2)CC(C(=O)NNC(=O)Cc2ccccc2)=C(C)N1    54.8 µM (inactive)

// moving on: another record for GI50
-- ask Look up GI50 for this compound: `COC1=Nc2ccccc2S(=O)(=O)C=C1`
-- reply 3.66 µM (inactive)

----------
# GI50 per record follows
System: DU-145
ASSAY METHOD TEXT: NCI tumour cell line growth inhibition, 48 h
Calls of active or inactive are those of the source. Cut-off read from the data, not from the text of the source: active = GI50 up to about 1.1 µM and inactive = higher.

CCCCCCCCCCCCCCCCCCNc1ccn(C2OC(COP(=O)(O)OCC3OC(n4cc(F)c(NCCCCCCCCCCCCCCCCCC)nc4=O)CC3O)C(O)C2O)c(=O)n1 (stereo not given)    > 100 µM (inactive)
CCOC(=O)N(c1ccccc1)c1cc(=O)n2ccccc2n1    > 100 µM (inactive)
COC(=O)C1=C(OC)C(=P2(c3ccccc3)CC(c3ccccc3)=C2c2ccccc2)C(C(=O)OC)=C1C(=O)OC (stereo not given)    > 61.2 µM (inactive)
COc1cc(C(=O)Oc2c(C(C)=O)sc3c2c(=O)n(-c2ccccc2)c(=S)n3-c2ccccc2)cc(OC)c1OC    26.4 µM (inactive)

// moving on: another record for GI50
-- ask Look up GI50 for this molecule: O=C(O)c1ccccc1CN1CCCC(C(=O)O)C1 (stereo not given)
-- reply > 100 µM (inactive)

----------
Test system: SR
ASSAY METHOD TEXT: NCI tumour cell line growth inhibition, 48 h
Activity calls are given as the source filed them. Rule as the data show it: active = GI50 up to about 1.1 µM and inactive = higher.
# GI50 per record follows

COCOc1cc(OC)c(Br)cc1C/C(=N/O)C(=O)OC    34.7 µM (inactive)

-- ask Look up GI50 for this molecule: `CC/N=C(/C#N)NCC`
-- reply > 100 µM (inactive)

-- ask Look up GI50 for this molecule: `Clc1cc(-c2csc(Cl)c2)cs1`
-- reply > 100 µM (inactive)

-- ask Look up GI50 for this molecule: `O=c1c2cc([N+](=O)[O-])ccc2n2n1Cc1ccccc1CC2`
-- reply > 100 µM (inactive)

-- ask Look up GI50 for this molecule: `COc1ccc(CNc2nc3ccc(C(F)(F)F)cc3nc2-c2ccccc2)cc1OC`
-- reply 6.64 µM (inactive)

-- ask Look up GI50 for this molecule: `COC(=O)c1nn(-c2ccccc2)c(=O)cc1N=[N+]=[N-]`
-- reply > 100 µM (inactive)

-- ask Look up GI50 for this molecule: `c1csc(-c2csc(-c3cccs3)c2)c1`
-- reply 23.5 µM (inactive)

-- ask Look up GI50 for this molecule: `O=C(/C=C1/Nc2ccc([N+](=O)[O-])cc2N/C1=C/C(=O)c1ccccc1)c1ccccc1`
-- reply 27.5 µM (inactive)

-- ask Look up GI50 for this molecule: `O=C(O)/C=C/C=C/c1ccc2c(c1)OCO2`
-- reply > 100 µM (inactive)

-- ask Look up GI50 for this molecule: CCOC(=O)C(NC(=O)c1ccccc1)(Nc1ccc(S(=O)(=O)Nc2nc(C)cc(C)n2)cc1)C(F)(F)F (stereo not given)
-- reply > 100 µM (inactive)
